# procedure-details: osmotic lysis modulators in infected erythrocytes, primary screen, PSAC antagonist project, cell-based, P. falciparum Indochina, OD700, 3 h (AID 1156)
# experimental-parameters: higher = more signal, called active from +8 up or from −8 down
measured-endpoint: z-score
Respond with the number and no other words.

{"molecule": "C[N+](C)(C)CCCCCCNC(=O)[C@@H]1C[C@@H]2C(=O)N[C@@H](Cc3ccccc3)C(=O)N2[C@@H]1c1ccc(O)cc1", "reported-value": -0.406}
{"molecule": "CC(C)[Si](C#CCCCC#N)(O[C@H](c1ccccc1)c1cn([C@H](C)c2ccccc2)nn1)C(C)C", "reported-value": 0.0478}
{"molecule": "CC(C)C[C@H]1NC(=O)[C@@]23C(=O)N[C@@H](Cc4ccccc4)C2[C@H](C)[C@@]2(C)O[C@H]2C3/C=C/C/C=C\\CNC(=O)[C@@H]2CCCN2C1=O (some centres not stated)", "reported-value": -0.875}
{"molecule": "COC(=O)C1=CC(CCCO)=CC(c2ccc(CN3CCCC3)cc2)N(Cc2sc3ccccc3c2Cl)C=C1C(=O)OC (configuration not stated)", "reported-value": -0.235}
{"molecule": "COC(=O)C(CC#Cc1ccc2c(c1)[C@]1(C(=O)N2)[C@H](c2ccc(O)cc2)N2[C@H](c3ccccc3)[C@H](c3ccccc3)OC(=O)[C@H]2[C@@H]1C(=O)N1CCc2cc(OC)c(OC)cc2C1)C(=O)OC", "reported-value": 0.848}
{"molecule": "CC(C)C[C@@H]1NC(=O)[C@H]2C[C@@H](C(=O)NCCCCCCNC(=O)CS)[C@@H](c3ccc(O)cc3)N2C1=O", "reported-value": 1.4}

Next item in the queue.
# get_value(readout='z-score', item= CCCCNC(=O)c1ccc(C#C[Si](C)(C)C)c(OC(C)=O)c1 ) 1.67
